# Tested on: SK-MEL-28 melanoma
# Protocol Details: NCI-60 one-dose screen, 48 h
# Experimental Conditions: 10 µM unless noted
The panel holds about 83,000 compounds, 20% with a hit somewhere; the sample as a whole holds those more often. Activity calls are given as the source filed them. How the source made its calls: active means growth percent below 10; inactive means the rest.
Outcome codes: label 1 = active, label 0 = inactive

[
  {
    "Compound Structure": "CCCCn1c(=O)[nH]c(N)c(C(c2ccc(F)cc2)c2c(N)[nH]c(=O)n(CCCC)c2=O)c1=O",
    "Class": "label 0"
  },
  {
    "Compound Structure": "CCOC(=O)c1ccc(-c2ccc3cc(OC)ccc3c2)nc1C",
    "Class": "label 0"
  },
  {
    "Compound Structure": "Clc1ccc(-c2cn(-c3ccccc3)c(-c3ccccc3)n2)cc1",
    "Class": "label 0"
  },
  {
    "Compound Structure": "O=C(/C=C/c1ccccc1)c1ccc2ccccc2c1",
    "Class": "label 0"
  },
  {
    "Compound Structure": "CN(C)c1ccc(/C=C/c2c(F)cccc2F)cc1",
    "Class": "label 0"
  },
  {
    "Compound Structure": "Cc1ccc(NSc2ccccc2[N+](=O)[O-])cc1",
    "Class": "label 0"
  },
  {
    "Compound Structure": "Nc1ccc(S(=O)(=O)Nc2ccsc2-c2nc(-c3ccccc3)no2)cc1",
    "Class": "label 0"
  },
  {
    "Compound Structure": "COc1ccc(/C(C)=C(\\c2ccc(Cl)cc2)c2ccc(OCCN3CCCC3)cc2)cc1F",
    "Class": "label 1"
  },
  {
    "Compound Structure": "NC(N)=N/N=C/CO",
    "Class": "label 0"
  },
  {
    "Compound Structure": "N#Cc1c(NC(=O)c2cccc(C(F)(F)F)c2)sc2c1CCC(=O)C2",
    "Class": "label 1"
  },
  {
    "Compound Structure": "CCn1nc(C#Cc2c(C)ccc3c(Nc4ccc(Cl)cc4)nccc23)c2c(N)ncnc21",
    "Class": "label 1"
  },
  {
    "Compound Structure": "Cn1cc(Nc2nccc(-c3ccc(N4CCCC4)c(C#N)c3)n2)cn1",
    "Class": "label 0"
  },
  {
    "Compound Structure": "Cc1cc(NS(=O)(=O)c2ccccc2)c(OS(=O)(=O)c2ccccc2)cc1C",
    "Class": "label 0"
  },
  {
    "Compound Structure": "CCOC(=O)c1nnn(-c2ccccc2)c1C1=CN(C)CCC1",
    "Class": "label 0"
  }
]

###

# System: A498 renal
# Protocol Details: NCI-60 one-dose screen, 48 h
# Experimental Conditions: 10 µM unless noted
The panel holds about 83,000 compounds, 20% with a hit somewhere; the sample as a whole holds those more often. Activity calls are given as the source filed them. Rule for the calls: active = growth percent below 10; inactive = the rest.
Outcome codes: active, inactive

[
  {
    "Compound": "CN(C)c1ccc(/C=N/NC(=O)COc2cc(=O)n(C)c3ccccc23)cc1",
    "Class": "inactive"
  },
  {
    "Compound": "CCCCCCCSc1ccc(C(=O)O)cc1",
    "Class": "inactive"
  },
  {
    "Compound": "CC[C@@H](C[C@H](CCO)c1ccccc1)c1cc2ccccc2o1",
    "Class": "inactive"
  },
  {
    "Compound": "CSc1nc2sc3cc(Cl)ccc3n2c(=N)c1C#N",
    "Class": "inactive"
  },
  {
    "Compound": "O=C(NC1CCOCC1)c1ccc2c(c1)CN(c1ncc(Cc3cccc(-n4cccn4)c3)s1)CC2",
    "Class": "inactive"
  },
  {
    "Compound": "Cc1nc(Nc2cccc(NC(=O)Nc3ccc(Cl)cc3)c2)c2ccccc2n1",
    "Class": "inactive"
  },
  {
    "Compound": "C=C(CNCCc1ccc(O)cc1)[C@@H]1CC[C@]2(COC3CCCCO3)CC[C@]3(C)[C@H](CC[C@@H]4[C@@]5(C)CCC(NCCO)C(C)(C)[C@@H]5CC[C@]43C)[C@@H]12 (some centres not stated)",
    "Class": "active"
  },
  {
    "Compound": "Cc1nc2ccccc2c(/C=C/c2ccc(Cl)cc2)c1C(=O)/C=C/c1ccc(Cl)cc1",
    "Class": "active"
  },
  {
    "Compound": "CS(=O)(=O)c1ccc(-c2[nH]c3ccc(F)cc3c2/C=N/NC(N)=S)cc1",
    "Class": "inactive"
  },
  {
    "Compound": "CC(C)(C)CC(C)(C)Nc1c(-c2ccc(-c3ccccc3)cc2)nc2cnccn12",
    "Class": "inactive"
  },
  {
    "Compound": "CCN(CC)CCCNC(=O)c1ccc(N)cc1O",
    "Class": "inactive"
  },
  {
    "Compound": "CN1CCN(c2ccc(Nc3ncc(Cl)c(NC[C@@H]4CCCO4)n3)cc2)CC1",
    "Class": "active"
  },
  {
    "Compound": "CCN(CC)CCOc1ccc(/C(=C(\\C)c2ccc(F)c(OC)c2)c2ccc(Cl)cc2)cc1",
    "Class": "inactive"
  },
  {
    "Compound": "O=C(O)C1C[C@](O)(c2ccc(F)cc2)[C@@H](c2ccc(F)cc2)O1 (some centres not stated)",
    "Class": "inactive"
  },
  {
    "Compound": "C=C(CNCCc1ccc(O)cc1)[C@@H]1CC[C@]2(COC3CCCCO3)CC[C@]3(C)[C@H](CC[C@@H]4[C@@]5(C)CCC(N)C(C)(C)[C@@H]5CC[C@]43C)[C@@H]12 (some centres not stated)",
    "Class": "active"
  },
  {
    "Compound": "O=C(CCCCCCCn1cc(-c2cccnc2)nn1)Nc1ccccc1-c1ccccc1",
    "Class": "inactive"
  },
  {
    "Compound": "CCN1CCN(c2ccc(Nc3cc(-c4cccnc4Nc4c(Cl)c(OC)cc(OC)c4Cl)ncn3)cc2)CC1",
    "Class": "inactive"
  },
  {
    "Compound": "Cc1ccc(Nc2ccc(Nc3ccc(C)cc3S(=O)(=O)O)c3c2C(=O)c2ccccc2C3=O)c(S(=O)(=O)O)c1",
    "Class": "inactive"
  },
  {
    "Compound": "COc1ccc(-n2ncn(CCCCCCn3cnn(-c4ccc(OC)cc4)c3=O)c2=O)cc1",
    "Class": "inactive"
  },
  {
    "Compound": "COc1cc2c(cc1OC)-c1ccc3cc4c(cc3c1N(CCN(C)C)C2)OCO4",
    "Class": "active"
  },
  {
    "Compound": "O=C1/C(=C/c2ccccc2[N+](=O)[O-])COc2ccc(O)c(O)c21",
    "Class": "inactive"
  },
  {
    "Compound": "O=C(O)c1ccc(CO)o1",
    "Class": "inactive"
  }
]

Where do these numbers come from? They come from PubChem BioAssay (NCI).
